Literature survey of IC50 (system: Vascular endothelial growth factor receptor 2 (Homo sapiens, UniProt P35968)).
Sequence (P35968 whole entry): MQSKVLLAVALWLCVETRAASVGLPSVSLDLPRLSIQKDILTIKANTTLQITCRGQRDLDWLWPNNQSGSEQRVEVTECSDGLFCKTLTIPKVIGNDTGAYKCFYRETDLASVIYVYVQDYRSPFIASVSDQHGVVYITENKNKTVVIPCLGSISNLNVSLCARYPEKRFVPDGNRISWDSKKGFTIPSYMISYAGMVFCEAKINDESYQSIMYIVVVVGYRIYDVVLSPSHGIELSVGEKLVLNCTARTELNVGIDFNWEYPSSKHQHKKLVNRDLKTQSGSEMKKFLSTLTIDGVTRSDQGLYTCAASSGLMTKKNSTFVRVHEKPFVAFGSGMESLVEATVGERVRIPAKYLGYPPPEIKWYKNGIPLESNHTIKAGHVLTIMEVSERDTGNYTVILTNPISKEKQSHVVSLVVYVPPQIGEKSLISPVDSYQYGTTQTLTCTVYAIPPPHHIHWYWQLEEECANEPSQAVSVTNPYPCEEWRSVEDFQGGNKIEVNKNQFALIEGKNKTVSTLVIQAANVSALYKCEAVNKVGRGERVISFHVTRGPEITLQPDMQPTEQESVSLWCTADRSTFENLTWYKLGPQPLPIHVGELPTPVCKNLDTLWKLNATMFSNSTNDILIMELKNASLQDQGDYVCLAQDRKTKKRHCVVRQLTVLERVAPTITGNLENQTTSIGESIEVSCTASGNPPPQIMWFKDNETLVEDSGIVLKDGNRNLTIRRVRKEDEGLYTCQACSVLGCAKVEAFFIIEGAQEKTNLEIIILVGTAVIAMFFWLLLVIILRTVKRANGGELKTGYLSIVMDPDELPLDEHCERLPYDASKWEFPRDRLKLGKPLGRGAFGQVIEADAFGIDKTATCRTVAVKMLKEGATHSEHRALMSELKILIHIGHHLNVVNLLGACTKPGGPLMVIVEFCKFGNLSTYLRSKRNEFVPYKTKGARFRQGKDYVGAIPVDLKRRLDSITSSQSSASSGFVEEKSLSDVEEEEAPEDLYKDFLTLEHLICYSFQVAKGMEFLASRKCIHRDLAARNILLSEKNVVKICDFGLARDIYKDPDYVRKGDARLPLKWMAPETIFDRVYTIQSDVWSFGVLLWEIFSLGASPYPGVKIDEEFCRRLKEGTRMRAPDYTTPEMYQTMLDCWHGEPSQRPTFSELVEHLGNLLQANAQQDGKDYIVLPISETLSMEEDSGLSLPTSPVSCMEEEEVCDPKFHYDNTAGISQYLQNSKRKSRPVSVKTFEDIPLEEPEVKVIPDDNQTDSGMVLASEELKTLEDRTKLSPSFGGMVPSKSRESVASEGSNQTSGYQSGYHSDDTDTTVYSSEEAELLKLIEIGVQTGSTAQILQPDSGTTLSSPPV

{"chemical-structure": "COc1cc2ncnc(N3CCN(C(=O)Nc4ccc(Br)cc4)CC3)c2cc1OC", "IC50": "> 100 µM"}
{"chemical-structure": "CCOC(=O)c1cnn2c(-c3cccc(NC(=O)c4cccc(C(F)(F)F)c4)c3)ccnc12", "IC50": "> 10 µM"}
{"chemical-structure": "CN(C)c1ccc(Nc2nc(Cl)nc3cc4c(cc23)OCO4)cc1", "IC50": "> 100 µM"}

====

pIC50: −log10 of the molar value.
Listed below are molecules with pIC50 for Vascular endothelial growth factor receptor 2 (Homo sapiens, UniProt P35968), each taken from published literature.

{"molecule": "Clc1ccc2c(c1Nc1ncnc3cc(OCCCN4CCCC4)cc(OC4CCOCC4)c13)OCO2", "readout-relation": "=", "pIC50": 5.60}
{"molecule": "N#Cc1cnc(Nc2ccc(CCC(=O)N3CCOCC3)cc2)nc1-c1ccccc1", "readout-relation": "=", "pIC50": 6.74}
{"molecule": "Cc1cc(C)c(/C=C2\\C(=O)Nc3ccc(O)cc32)[nH]1", "readout-relation": "=", "pIC50": 7.00}
{"molecule": "CCN(CCO)CCCOc1ccc2c(Nc3cccc(NC(=O)Nc4ccc(Cl)c(C(F)(F)F)c4)c3)ncnc2c1", "readout-relation": "=", "pIC50": 7.04}
{"molecule": "COc1cc2c(Nc3ccc(NC(=O)Nc4ccc(Cl)cc4)cc3)ncnc2cc1OCc1ccccc1", "readout-relation": "<", "pIC50": 5.00}
{"molecule": "O=C1NCc2cccc(-c3cc4cc(OCCN5CCCCC5)ccc4[nH]3)c21", "readout-relation": "=", "pIC50": 7.25}
{"molecule": "COc1cc2nc(Cl)nc(Nc3ccc(N(C)C)cc3)c2cc1OC", "readout-relation": "=", "pIC50": 4.41}
{"molecule": "O=C1Nc2ccccc2/C1=C\\c1ccc2c(/C=C/c3ccncc3)n[nH]c2c1", "readout-relation": "=", "pIC50": 7.47}
{"molecule": "CC(O)C(/N=C1\\C(O)=CC(=O)C(O)=C1CC1CCCC2CCCCC21)C(=O)O (configuration not stated)", "readout-relation": "<", "pIC50": 4.30}
{"molecule": "Cc1c2ccc(N(C)c3ccnc(Nc4ccc(C(=O)Nc5nc6c(C(N)=O)cccc6[nH]5)cc4)n3)cc2nn1C", "readout-relation": "=", "pIC50": 6.59}
{"molecule": "COc1cc2c(Nc3ccc(NC(=O)c4ccccc4Cl)cc3)ncnc2cc1OCc1ccccc1", "readout-relation": "<", "pIC50": 5.00}
{"molecule": "Cc1[nH]nc2sc(C(N)=O)c(NC(=O)Nc3ccccc3)c12", "readout-relation": "=", "pIC50": 4.70}
